- Target Desc: T1, soluble KDR extracellular domain (ECD) (Calbiochem) (human, UniProt P35968 20-764)
- T1 construct: extracellular domain; Bought protein; also called KDR-ECD; VEGF Receptor 2 D1-7, Cat. #676490
- T1 sequence (P35968 20-764): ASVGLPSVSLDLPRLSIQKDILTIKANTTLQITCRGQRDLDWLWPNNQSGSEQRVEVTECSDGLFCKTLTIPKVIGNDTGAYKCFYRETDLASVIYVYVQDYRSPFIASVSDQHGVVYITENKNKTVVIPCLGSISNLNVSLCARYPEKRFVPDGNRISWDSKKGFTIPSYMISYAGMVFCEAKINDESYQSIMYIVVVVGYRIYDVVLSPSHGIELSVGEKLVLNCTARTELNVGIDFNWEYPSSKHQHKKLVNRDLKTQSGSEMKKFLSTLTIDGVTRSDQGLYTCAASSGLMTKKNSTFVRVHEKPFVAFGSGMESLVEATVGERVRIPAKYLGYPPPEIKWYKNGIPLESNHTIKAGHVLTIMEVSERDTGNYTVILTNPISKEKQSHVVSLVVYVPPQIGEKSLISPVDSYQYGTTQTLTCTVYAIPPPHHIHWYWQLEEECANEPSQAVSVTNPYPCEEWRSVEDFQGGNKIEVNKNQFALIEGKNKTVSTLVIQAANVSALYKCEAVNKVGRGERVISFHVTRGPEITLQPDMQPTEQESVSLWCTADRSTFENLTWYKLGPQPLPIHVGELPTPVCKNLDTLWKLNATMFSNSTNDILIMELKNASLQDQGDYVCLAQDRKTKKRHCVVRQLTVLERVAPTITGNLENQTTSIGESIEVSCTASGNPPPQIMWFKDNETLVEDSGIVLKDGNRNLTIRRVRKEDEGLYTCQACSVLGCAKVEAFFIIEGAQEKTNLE
- Test Name: Limited Antigen ELISA, KDR coat 6.25 ng/mL, supernatant 1:25
Reported ELISA reading values for the following binders.
Recorded Metric: ELISA reading

21A1 (antibody, V domains shown, Fully human mAb from XenoMouse hybridoma, tested as hybridoma supernatant) VH: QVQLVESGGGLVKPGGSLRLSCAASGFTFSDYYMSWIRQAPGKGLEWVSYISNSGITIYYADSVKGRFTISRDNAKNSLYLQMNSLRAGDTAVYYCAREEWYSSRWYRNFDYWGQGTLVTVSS VL: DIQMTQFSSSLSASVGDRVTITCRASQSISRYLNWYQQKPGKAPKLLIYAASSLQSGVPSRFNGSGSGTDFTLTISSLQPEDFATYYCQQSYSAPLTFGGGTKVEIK: 0.38
33B1 (antibody, V domains shown, Fully human mAb from XenoMouse hybridoma, tested as hybridoma supernatant) VH: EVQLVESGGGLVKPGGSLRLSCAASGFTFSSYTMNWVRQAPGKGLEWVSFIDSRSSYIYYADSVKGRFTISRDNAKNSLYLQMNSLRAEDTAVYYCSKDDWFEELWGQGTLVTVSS VL: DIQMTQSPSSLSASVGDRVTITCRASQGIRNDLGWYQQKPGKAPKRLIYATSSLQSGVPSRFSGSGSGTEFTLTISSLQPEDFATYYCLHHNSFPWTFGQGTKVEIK: 0.08
27A3 (antibody, V domains shown, Fully human mAb from XenoMouse hybridoma, tested as hybridoma supernatant) VH: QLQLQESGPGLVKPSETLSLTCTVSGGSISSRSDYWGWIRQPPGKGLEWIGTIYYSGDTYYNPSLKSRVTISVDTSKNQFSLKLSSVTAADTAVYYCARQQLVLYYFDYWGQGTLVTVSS VL: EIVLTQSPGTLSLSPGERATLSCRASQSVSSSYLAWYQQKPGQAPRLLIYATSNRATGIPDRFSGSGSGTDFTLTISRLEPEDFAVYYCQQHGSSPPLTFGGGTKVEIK: 0.26
